molecular target: Epidermal growth factor receptor (Homo sapiens)
Sequence (P00533 whole entry): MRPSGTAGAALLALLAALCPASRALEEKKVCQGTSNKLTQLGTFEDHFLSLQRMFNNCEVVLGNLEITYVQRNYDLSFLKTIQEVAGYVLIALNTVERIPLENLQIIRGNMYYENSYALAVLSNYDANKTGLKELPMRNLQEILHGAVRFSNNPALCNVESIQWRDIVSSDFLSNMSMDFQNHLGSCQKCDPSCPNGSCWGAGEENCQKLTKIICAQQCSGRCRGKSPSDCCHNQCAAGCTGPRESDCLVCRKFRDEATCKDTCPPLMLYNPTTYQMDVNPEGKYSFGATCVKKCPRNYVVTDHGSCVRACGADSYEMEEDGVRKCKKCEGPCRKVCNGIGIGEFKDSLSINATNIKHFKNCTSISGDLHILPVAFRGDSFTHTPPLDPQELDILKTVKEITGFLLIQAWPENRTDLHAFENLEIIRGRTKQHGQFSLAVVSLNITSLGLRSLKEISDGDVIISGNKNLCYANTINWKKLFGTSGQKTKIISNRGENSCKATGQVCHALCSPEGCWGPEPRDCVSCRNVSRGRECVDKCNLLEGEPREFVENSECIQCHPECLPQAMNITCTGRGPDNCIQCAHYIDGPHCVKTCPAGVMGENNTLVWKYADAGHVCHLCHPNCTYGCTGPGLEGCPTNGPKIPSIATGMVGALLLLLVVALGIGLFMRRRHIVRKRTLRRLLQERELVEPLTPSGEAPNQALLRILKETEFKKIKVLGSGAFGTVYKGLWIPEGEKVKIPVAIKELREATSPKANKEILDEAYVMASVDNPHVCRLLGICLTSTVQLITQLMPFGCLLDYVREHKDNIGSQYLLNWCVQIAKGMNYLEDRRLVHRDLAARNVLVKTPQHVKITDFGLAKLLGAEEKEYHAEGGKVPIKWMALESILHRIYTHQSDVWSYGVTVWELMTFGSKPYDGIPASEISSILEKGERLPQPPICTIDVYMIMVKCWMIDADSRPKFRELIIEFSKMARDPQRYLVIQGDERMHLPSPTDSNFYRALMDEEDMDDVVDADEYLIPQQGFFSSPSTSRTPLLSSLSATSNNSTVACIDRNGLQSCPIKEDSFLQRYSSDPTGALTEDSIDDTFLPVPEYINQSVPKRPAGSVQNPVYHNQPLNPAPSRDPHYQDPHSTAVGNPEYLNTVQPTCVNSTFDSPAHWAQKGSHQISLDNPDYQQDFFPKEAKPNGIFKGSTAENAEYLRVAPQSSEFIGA
Response field label takes rule met when IC50 is strictly below 4 nM and rule not met in all other cases.

- structureAsSmiles: "COCCOc1cc2ncnc(Nc3ccc(F)c(Cl)c3)c2cc1NC(=O)/C=C/CN(C)C1CC1"
  classAssignment: "rule not met"
- structureAsSmiles: "C#Cc1cccc(Nc2ncnc3cc(OC)c(NC(=O)/C=C/CN(C)C4CC4)cc23)c1"
  classAssignment: "rule met"
- structureAsSmiles: "COc1cc2ncnc(Nc3ccc(F)c(Cl)c3)c2cc1NC(=O)/C=C/CNC1CC1"
  classAssignment: "rule met"
- structureAsSmiles: "C=CC(=O)Nc1cc2c(Nc3ccc(Br)cc3F)ncnc2cc1O[C@H]1CCOC1"
  classAssignment: "rule not met"
- structureAsSmiles: "C#Cc1cccc(Nc2ncnc3cc(OCC)c(NC(=O)/C=C/CNC4CC4)cc23)c1"
  classAssignment: "rule not met"

In the record for `COCCOc1cc2ncnc(Nc3ccc(OCc4cccc(F)c4)cc3)c2cc1NC(=O)/C=C/CN(C)C` , is IC50 less than 4 nM? rule not met

In the record for `C#Cc1cccc(Nc2ncnc3cc(OC4CCOCC4)c(NC(=O)/C=C/CN(C)C)cc23)c1` , is IC50 less than 4 nM? rule not met

In the record for `O=C1CCN(C/C=C/C(=O)Nc2cc3c(Nc4ccc(F)c(Cl)c4)ncnc3cc2O[C@H]2CCOC2)CC1` , is IC50 less than 4 nM? rule not met
